Please go through the items and note down their %Inh.
# Tested on: PIM3
# Particulars: concentration: 1 μM, replicates: in singlicate; n = 1;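 note: KINOMEscan kinase panel screen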
Provide a numeric answer, followed by its unit.

// field: %Inh; key: `Clc1cccc(-c2nc(Nc3ccncc3)c3ccccc3n2)c1` ; value = 0%

Form: molecule = `Cc1ccc(NC(=O)c2cccc(C#N)c2)cc1-c1ccc(C(=O)Nc2ccncc2)cc1` ; %Inh = 0%

Lab note: `Fc1cccc(COc2ccc(Nc3ncnc4sc(-c5ccc[nH]5)cc34)cc2Cl)c1` gave %Inh of 14%

Measured %Inh, `COc1cc2c(Nc3cccc(NC(=O)c4ccccc4)c3)ncnc2cc1OCCCN1CCOCC1` : 5%

Entry under test: `Oc1ccc2ncnc(Nc3ccc(OCc4ccccc4)cc3)c2c1` . Its %Inh was 33%

Form field %Inh, entry `O=C(c1ccc(-c2cc(-c3c[nH]nc3-c3ccccn3)ccn2)cc1)N1CCCC1` : 8%

%Inh recorded for this molecule, `O=c1cc(N2CCOCC2)nc2n(Cc3cccc(Cl)c3)ccn12` , is 0%

Kindly note the recorded %Inh for `CNc1nccc(-c2c(-c3ccc(F)cc3)ncn2CCCN2CCOCC2)n1` , which is 81%

get_value(item= `O=C(CCO)NCCn1ccc2ncnc(Nc3ccc(Oc4cccc(C(F)(F)F)c4)c(Cl)c3)c21` , readout=%Inh) returns 0%

* * *

# System: PIK3CA
# Particulars: concentration: 1 μM, replicates: in singlicate; n = 1
Reported endpoint: %Inh (%)
Unit % implied. Number only.

Noted %Inh for O=c1cc(N2CCOCC2)nc2n(Cc3cccc(Cl)c3)ccn12 [GSK2296823] , tested on PIK3CA: 0

Considering CN1CCC(n2cnc(-c3ccc(F)cc3)c2-c2ccnc(NC3CCNCC3)n2)CC1 [SB-229482] , its %Inh with PIK3CA was recorded as 0

Item: Nc1nccc2scc(-c3ccc4c(c3)CCN4C(=O)Cc3cc(F)ccc3F)c12 [GSK2587663] | System: PIK3CA | %Inh: 0

Let me check: COc1ccc(-c2nc3n(c2-c2ccncc2)CCC3)cc1 [SKF-104493] , system PIK3CA, measured %Inh is 0

Observed %Inh, PIK3CA, `O=C(CCO)NCCn1ccc2ncnc(Nc3ccc(Oc4cccc(C(F)(F)F)c4)c(Cl)c3)c21` : 0

Reported PIK3CA %Inh for item CC(=O)Nc1n[nH]c2ncc(-c3ccccc3)cc12 [SB-548492] was 0

Summary: C[C@H]1CC[C@@H](C(=O)Nc2ccccc2)CN1c1cc(-c2ccc3c(N)n[nH]c3c2)nc(N)n1 [GSK2283293] , PIK3CA, %Inh = 0

Summary line: Nc1n[nH]c2nnc(-c3ccccc3)cc12 [SB-517389] , PIK3CA, reported %Inh = 0

Reported %Inh (PIK3CA) for entry Nc1nc(-c2cccnc2)c(-c2ccnc3ccccc23)s1 [GW684083] is 0

Simply: Cc1ccc(O)cc1Nc1cc(C(F)(F)F)nc2ccc(-c3ccncc3)cc12 [GW630823] , PIK3CA, %Inh = 1

Known value: PIK3CA %Inh of the compound `O=C(NCCCN1CCCC1=O)c1cnc(NCc2cc(Cl)ccc2Cl)nc1NC1CCNCC1` equals 0

Here `Clc1cc(Nc2ncnc3cc[nH]c23)ccc1OCc1ccccn1` was tested on PIK3CA, and its %Inh came to 8

Observed %Inh, PIK3CA, COc1ccc(Nc2nccc(N3CCC(NC(=O)c4cccc(NC(C)=O)c4)C3)n2)cc1 (stereo not shown) [GSK1379732] : 0

Entry Cc1ccc(NC(=O)c2cccc(C#N)c2)cc1-c1ccc(C(=O)Nc2ccncc2)cc1 [GSK1398463] , tested on PIK3CA, has a reported %Inh of 6

The reported PIK3CA %Inh of CCn1c(-c2ccncc2)nc2cnccc21 [SB-735216] is 0

The compound O=C(c1ccc(-c2cc(-c3c[nH]nc3-c3ccccn3)ccn2)cc1)N1CCCC1 [GW792479] on PIK3CA: %Inh was 0

Lab entry: PIK3CA assay, compound Fc1ccc(Nc2nccc(-c3c(-c4ccc(Cl)cc4)nn4ncccc34)n2)cc1F [GW829058] , %Inh = 25

Tested system PIK3CA; %Inh recorded for Oc1ccc2ncnc(Nc3ccc(OCc4ccccc4)cc3)c2c1 [GI262866] was 0

Hey, PIK3CA data for CS(=O)(=O)CCNCc1nc(-c2ccc3ncnc(Nc4ccc(OCc5cccc(F)c5)c(Cl)c4)c3c2)cs1.Cl [GW583340] : %Inh came out at 0
